Reported CCR5 sequestration (%) (% of control surface CCR5) is given for each of the following binders.
target: CCR5 (UniProt P51681); assay: cell-based or functional assay
RECORDED_METRIC: CCR5 sequestration (%) (% of control surface CCR5)

BINDER	REPORTED
RANTES derivative: signature sequence SEQ ID NO: 52 fused to positions 10-68 of native RANTES (SEQ ID NO: 1) (ligand) QGPPLMALSVCCFAYIARPLPRAHIKEYFYTSGKCSNPAVVFVTRKNRQVCANPEKKWVREYINSLEMS	11
RANTES derivative: signature sequence SEQ ID NO: 68 fused to positions 10-68 of native RANTES (SEQ ID NO: 1) (ligand) QGPPLMSGQSCCFAYIARPLPRAHIKEYFYTSGKCSNPAVVFVTRKNRQVCANPEKKWVREYINSLEMS	24
RANTES derivative: signature sequence SEQ ID NO: 50 fused to positions 10-68 of native RANTES (SEQ ID NO: 1) (ligand) QGPPLQWFQVCCFAYIARPLPRAHIKEYFYTSGKCSNPAVVFVTRKNRQVCANPEKKWVREYINSLEMS	11
RANTES derivative: signature sequence SEQ ID NO: 3 fused to positions 10-68 of native RANTES (SEQ ID NO: 1) (ligand) QGPPLMWMQVCCFAYIARPLPRAHIKEYFYTSGKCSNPAVVFVTRKNRQVCANPEKKWVREYINSLEMS	3
RANTES derivative: signature sequence SEQ ID NO: 60 fused to positions 10-68 of native RANTES (SEQ ID NO: 1) (ligand) QGPPLQWMQACCFAYIARPLPRAHIKEYFYTSGKCSNPAVVFVTRKNRQVCANPEKKWVREYINSLEMS	8
RANTES derivative: signature sequence SEQ ID NO: 51 fused to positions 10-68 of native RANTES (SEQ ID NO: 1) (ligand) QGPPLQWTQVCCFAYIARPLPRAHIKEYFYTSGKCSNPAVVFVTRKNRQVCANPEKKWVREYINSLEMS	12
RANTES derivative: signature sequence SEQ ID NO: 61 fused to positions 10-68 of native RANTES (SEQ ID NO: 1) (ligand) QGPPLQWMQVCCFAYIARPLPRAHIKEYFYTSGKCSNPAVVFVTRKNRQVCANPEKKWVREYINSLEMS	7
RANTES derivative: signature sequence SEQ ID NO: 46 fused to positions 10-68 of native RANTES (SEQ ID NO: 1) (ligand) QGPLSGWAQVCCFAYIARPLPRAHIKEYFYTSGKCSNPAVVFVTRKNRQVCANPEKKWVREYINSLEMS	72
RANTES derivative: signature sequence SEQ ID NO: 7 fused to positions 10-68 of native RANTES (SEQ ID NO: 1) (ligand) QGPPLMWTQVCCFAYIARPLPRAHIKEYFYTSGKCSNPAVVFVTRKNRQVCANPEKKWVREYINSLEMS	10
RANTES derivative: signature sequence SEQ ID NO: 14 fused to positions 10-68 of native RANTES (SEQ ID NO: 1) (ligand) QGPLLMWLQVCCFAYIARPLPRAHIKEYFYTSGKCSNPAVVFVTRKNRQVCANPEKKWVREYINSLEMS	8
RANTES derivative: signature sequence SEQ ID NO: 40 fused to positions 10-68 of native RANTES (SEQ ID NO: 1) (ligand) QGPPMSWSQSCCFAYIARPLPRAHIKEYFYTSGKCSNPAVVFVTRKNRQVCANPEKKWVREYINSLEMS	6
RANTES derivative: signature sequence SEQ ID NO: 42 fused to positions 10-68 of native RANTES (SEQ ID NO: 1) (ligand) QGPPMSAYQVCCFAYIARPLPRAHIKEYFYTSGKCSNPAVVFVTRKNRQVCANPEKKWVREYINSLEMS	0
RANTES derivative: signature sequence SEQ ID NO: 5 fused to positions 10-68 of native RANTES (SEQ ID NO: 1) (ligand) QGPPLMWTQSCCFAYIARPLPRAHIKEYFYTSGKCSNPAVVFVTRKNRQVCANPEKKWVREYINSLEMS	0
RANTES derivative: signature sequence SEQ ID NO: 31 fused to positions 10-68 of native RANTES (SEQ ID NO: 1) (ligand) QGPPLSWLQSCCFAYIARPLPRAHIKEYFYTSGKCSNPAVVFVTRKNRQVCANPEKKWVREYINSLEMS	6
RANTES derivative: signature sequence SEQ ID NO: 49 fused to positions 10-68 of native RANTES (SEQ ID NO: 1) (ligand) QGPLGQQGQVCCFAYIARPLPRAHIKEYFYTSGKCSNPAVVFVTRKNRQVCANPEKKWVREYINSLEMS	77
RANTES derivative: signature sequence SEQ ID NO: 38 fused to positions 10-68 of native RANTES (SEQ ID NO: 1) (ligand) QGPPLMQLQVCCFAYIARPLPRAHIKEYFYTSGKCSNPAVVFVTRKNRQVCANPEKKWVREYINSLEMS	3
RANTES derivative: signature sequence SEQ ID NO: 10 fused to positions 10-68 of native RANTES (SEQ ID NO: 1) (ligand) QGPPLMWLQSCCFAYIARPLPRAHIKEYFYTSGKCSNPAVVFVTRKNRQVCANPEKKWVREYINSLEMS	0
RANTES derivative: signature sequence SEQ ID NO: 33 fused to positions 10-68 of native RANTES (SEQ ID NO: 1) (ligand) QGPPMMAGLSCCFAYIARPLPRAHIKEYFYTSGKCSNPAVVFVTRKNRQVCANPEKKWVREYINSLEMS	0
RANTES derivative: signature sequence SEQ ID NO: 29 fused to positions 10-68 of native RANTES (SEQ ID NO: 1) (ligand) QGPPLGSMGPCCFAYIARPLPRAHIKEYFYTSGKCSNPAVVFVTRKNRQVCANPEKKWVREYINSLEMS	36
RANTES derivative: signature sequence SEQ ID NO: 21 fused to positions 10-68 of native RANTES (SEQ ID NO: 1) (ligand) QGPPGDWLQVCCFAYIARPLPRAHIKEYFYTSGKCSNPAVVFVTRKNRQVCANPEKKWVREYINSLEMS	54

Hey, just so you know, these numbers are from patent US20090317363A1.
